Molecular target: UniProt P05177
Sequence (P05177 2-516): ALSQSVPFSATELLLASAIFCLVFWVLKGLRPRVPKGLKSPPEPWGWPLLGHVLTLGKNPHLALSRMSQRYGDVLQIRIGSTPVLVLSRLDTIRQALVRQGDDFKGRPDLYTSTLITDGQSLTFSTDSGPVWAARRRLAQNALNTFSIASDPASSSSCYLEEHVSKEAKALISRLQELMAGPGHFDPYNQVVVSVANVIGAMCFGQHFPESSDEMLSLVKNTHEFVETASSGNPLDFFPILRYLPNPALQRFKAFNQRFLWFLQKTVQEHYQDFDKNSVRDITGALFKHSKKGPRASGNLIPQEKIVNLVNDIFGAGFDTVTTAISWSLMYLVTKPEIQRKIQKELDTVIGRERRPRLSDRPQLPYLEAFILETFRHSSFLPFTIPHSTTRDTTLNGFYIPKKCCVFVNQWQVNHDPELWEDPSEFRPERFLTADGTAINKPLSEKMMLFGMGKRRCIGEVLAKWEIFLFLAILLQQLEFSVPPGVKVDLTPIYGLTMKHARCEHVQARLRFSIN
Assay: Inhibition mode on CYP1A-catalyzed phenacetin O-deethylation in HLMs (Lineweaver-Burk and secondary plot)
Assay type: in vitro ADME
Conditions: human, pooled human liver microsomes, pH 7.4, probe phenacetin (O-deethylation), phenacetin 20, 40, 80 μM, 60 min incubation
measuredEndpoint: Ki at 60 min (nM)

>>> valueobserved("O=c1ccc2c(ccc3ccoc32)o1 [Bakuchicin]")
90
